target: Large T antigen (Simian virus 40) (UniProt P03070); experiment: SV40 large T antigen inhibitors, biochemical (AID 1903); conditions: SV40 large T antigen ATPase/helicase inhibition assay; at 20 µM; active compounds read high
Sequence (P03070 whole entry, looked up): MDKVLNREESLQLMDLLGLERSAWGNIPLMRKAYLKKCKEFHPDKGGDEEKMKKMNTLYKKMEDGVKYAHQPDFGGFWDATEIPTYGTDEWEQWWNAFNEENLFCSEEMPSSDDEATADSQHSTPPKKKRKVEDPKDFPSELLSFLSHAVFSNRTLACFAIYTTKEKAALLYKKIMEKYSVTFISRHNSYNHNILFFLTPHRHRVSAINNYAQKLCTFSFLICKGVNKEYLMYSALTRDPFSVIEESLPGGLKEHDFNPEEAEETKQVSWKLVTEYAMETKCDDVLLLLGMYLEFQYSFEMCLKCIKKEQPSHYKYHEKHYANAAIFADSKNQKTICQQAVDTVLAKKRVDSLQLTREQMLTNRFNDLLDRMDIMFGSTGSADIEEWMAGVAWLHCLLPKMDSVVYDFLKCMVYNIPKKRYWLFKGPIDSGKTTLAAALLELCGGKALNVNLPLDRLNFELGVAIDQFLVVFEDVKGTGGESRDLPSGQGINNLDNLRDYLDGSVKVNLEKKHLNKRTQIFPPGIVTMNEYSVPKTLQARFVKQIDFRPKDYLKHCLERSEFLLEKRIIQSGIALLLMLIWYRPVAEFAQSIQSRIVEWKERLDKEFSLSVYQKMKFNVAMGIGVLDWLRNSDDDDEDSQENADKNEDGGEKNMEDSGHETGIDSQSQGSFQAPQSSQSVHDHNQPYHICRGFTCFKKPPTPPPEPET
Hit rate of the full screen: of about 310,000 compounds, about 1,200 (0.39%) were called active. These entries were drawn from the full list. Results with a measured potency or affinity are listed apart.
Please note: Yes applies when inhibition is 10% or greater, and No applies otherwise.

Reference set (8 entries):
Cc1cccc(C(=O)NNC(=O)CCn2nnc3ccccc32)c1 : No
COc1cc(/C=C2/C(=O)NN(c3cccc(C)c3)C2=O)cc([N+](=O)[O-])c1O : Yes
CC(C)c1nnc(NC(=O)CCC(=O)N2CCC(Cc3ccccc3)CC2)s1 : Yes
COC(=O)c1ccc(N2NC(=O)/C(=C/c3ccc(OC)c(OC)c3)C2=O)cc1 : Yes
COc1cc(/C=C2\C(=O)NN(c3ccc(C)cc3)C2=O)cc([N+](=O)[O-])c1O : Yes
COC(=O)c1c(-c2ccc(F)cc2)csc1NC(=O)C1CCCO1 (stereo not given) : Yes
Cc1ccsc1C=Nc1c(C)n(C)n(-c2ccccc2)c1=O : No
O=C(COc1ccc(F)cc1)Nc1cc(S(=O)(=O)N2CCCCC2)ccc1N1CCCCC1 : Yes

Lookup: Hi, just wondering whether COc1cc(NC(=O)c2cc([N+](=O)[O-])ccc2NC(=O)CN2CCN(c3ccccn3)CC2)cc(OC)c1 shows inhibition of 10% or higher.
Found: No

Lookup: Hi, just wondering whether Cn1ccnc1SCC(=O)Nc1cc(C(F)(F)F)ccc1N1CCOCC1 shows inhibition of 10% or higher.
Found: No

* * *

biological target: Large T antigen (Simian virus 40) (UniProt P03070); assay: SV40 large T antigen inhibitors, biochemical (AID 1903); settings: SV40 large T antigen ATPase/helicase inhibition assay; at 20 µM; active compounds read high
In all, about 310,000 compounds went through this assay and about 1,200 (0.39%) were called active. A selection follows. Entries with a potency or affinity are not part of this list.
Reported inhibition values for a set of molecules
Please state the figure in %; there is no need to write the unit.

Some entries whose results are on file:
CC1=C(C#N)c2nc(N)c(C#N)c(C)c2/C1=C\c1ccc(C)cc1 : 12.2
COc1cccc(NC(=O)CSCC(=O)Nc2ccccc2)c1 : 13.8
CC(NS(=O)(=O)c1ccc(Br)cc1)C(N)=O (configuration not stated) : 3.6
COc1cc(/C=C2/C(=N)N3C(c4ccccc4)=CSC3=NC2=O)ccc1OCC(=O)O : 31
COc1ccc(-c2nnc(-c3cc4ccccc4oc3=O)o2)cc1 : -1.16
CCOC(=O)/C(C#N)=C/c1c(N2CCN(c3ccccc3)CC2)nc2c(C)cccn2c1=O : 2.5
O=C(O)c1ccc2c(=O)n3c(nc2c1)/C(=C/c1ccc(Cl)c(Cl)c1)CC3 : 24.8
C/C=C/c1ccc(OCC(=O)O)c(OC)c1 : 10.3

Lookup: Which inhibition value is on record for O=C1OCc2cc(NC(=O)C3CCCCC3)ccc21 ?
Found: 2.69

Lookup: Which inhibition value is on record for O=C(c1ccc(S(=O)(=O)Nc2ccc(F)cc2)cc1)N1CCN(c2ccccn2)CC1 ?
Found: 10.4

Lookup: Which inhibition value is on record for COCCCNC(=O)/C(C#N)=C/c1ccc(OCC(=O)O)c(OC)c1 ?
Found: 34.6
